target: FimH proteins (Escherichia coli); construct: endogenous in cells; host or cells: UPEC strain UTI89 (whole bacteria); assay: hemagglutination inhibition (HAI) assay: UPEC UTI89 with guinea pig red blood cells; type: cell-based, uropathogenic Escherichia coli (UPEC) UTI89; conditions: read-out: HAI EC90 (minimum concentration for inhibiting hemagglutination)
assay_metric: EC90 (nM)
# unit: nM | format: bare number

Prompt line: What reported EC90 corresponds to "COc1cnc(-n2cc(C#C[C@H]3O[C@H](CO)[C@@H](O)[C@H](O)[C@@]3(O)C#Cc3cnn(C)c3)cn2)nc1" on FimH proteins (Escherichia coli)?
Response line: 8

Prompt line: Record: "Cc1ccccc1O[C@H]1O[C@H](CO)[C@@H](O)[C@H](O)[C@@]1(O)C#Cc1ccccc1"
Response line: 520

Prompt line: Record: CCC(C)O[C@H]1O[C@H](CO)[C@@H](O)[C@H](O)[C@@]1(O)C#Cc1ccccc1 (stereo partly shown)
Response line: 260

Prompt line: Record: "CCC#C[C@@]1(O)[C@@H](C#Cc2cnn(-c3ccccc3)c2)O[C@H](CO)[C@@H](O)[C@@H]1O"
Response line: 32

###

biological target: FimH proteins (Escherichia coli); construct: endogenous in cells; host or cells: UPEC strain UTI89 (whole bacteria); experiment: hemagglutination inhibition (HAI) assay: UPEC UTI89 with guinea pig red blood cells; type: cell-based, uropathogenic Escherichia coli (UPEC) UTI89; settings: read-out: HAI EC90 (minimum concentration for inhibiting hemagglutination)
assay_metric: EC90 (nM)
# unit: nM | format: bare number

smiles_entry=OC[C@H]1O[C@H](C#Cc2cnn([C@H]3CC[C@H](O)CC3)c2)[C@](O)(C#Cc2ccc(F)cc2)[C@@H](O)[C@@H]1O readout_unit=nM recorded_number=4
smiles_entry=Cc1cccc(C#C[C@@]2(O)[C@@H](C#Cc3ccccc3)O[C@H](CO)[C@@H](O)[C@@H]2O)c1 readout_unit=nM recorded_number=260

--- query ---
Prompt line: What reported EC90 corresponds to "OC[C@H]1O[C@H](C#Cc2cnn(-c3ccccc3Cl)c2)[C@](O)(C#Cc2ccccc2)[C@@H](O)[C@@H]1O" on FimH proteins (Escherichia coli)?
Response line: 1

###

molecular target: FimH proteins (Escherichia coli, UniProt Q1R2J4); construct: endogenous in cells; host or cells: UPEC strain UTI89 (whole bacteria); experiment: hemagglutination inhibition (HAI) assay: UPEC UTI89 with guinea pig red blood cells; type: cell-based, uropathogenic Escherichia coli (UPEC) UTI89; conditions: read-out: HAI EC90 (minimum concentration for inhibiting hemagglutination)
Could you mark each record satisfied if its EC90 falls strictly under 4 nM, and not satisfied if it equals or exceeds it?

Reference set, count: 5
smiles_entry=[2H]C([2H])([2H])Oc1ccc(-n2cc(C#C[C@H]3O[C@H](CO)[C@@H](O)[C@H](O)[C@@]3(O)C#CC3CC3)cn2)cc1 answer_label=satisfied
smiles_entry=OC[C@H]1O[C@H](C#Cc2cnn(C3CCC(F)(F)CC3)c2)[C@](O)(C#Cc2ccccc2)[C@@H](O)[C@@H]1O answer_label="not satisfied"
smiles_entry=CCn1cc(C#C[C@H]2O[C@H](CO)[C@@H](O)[C@H](O)[C@@]2(O)C#Cc2ccccc2)cn1 answer_label="not satisfied"
smiles_entry=CNC(=O)c1cccc(-c2ccc(O[C@H]3O[C@H](CO)[C@@H](O)[C@H](O)[C@@]3(O)C#Cc3cnn(C)c3)c(C)c2)c1 answer_label="not satisfied"
smiles_entry=OC[C@H]1O[C@H](C#Cc2cnn(C3CCCCC3)c2)[C@](O)(C#Cc2ccccc2)[C@@H](O)[C@@H]1O answer_label=satisfied

Turning to the following compound.
Prompt line: Is it true that EC90 reported for "CC(C)n1cc(C#C[C@H]2O[C@H](CO)[C@@H](O)[C@H](O)[C@@]2(O)C#Cc2ccccc2)ccc1=O" is less than 4 nM?
Response line: not satisfied

###

target: FimH proteins (Escherichia coli, UniProt Q1R2J4); construct: endogenous in cells; host or cells: UPEC strain UTI89 (whole bacteria); experiment: hemagglutination inhibition (HAI) assay: UPEC UTI89 with guinea pig red blood cells; type: cell-based, uropathogenic Escherichia coli (UPEC) UTI89; settings: read-out: HAI EC90 (minimum concentration for inhibiting hemagglutination)
assay_metric: log10 of EC90 (log10 of the value in nM)
All values: log10 EC90 [nM].

Solved cases (4 shown):
compound=OC[C@H]1O[C@H](C#Cc2cnn(-c3ccccc3)c2)[C@](O)(C#Cc2ccccc2)[C@@H](O)[C@@H]1O assay_metric="log10 of EC90" recorded_number=-0.60
compound="CC(C)C(C)O[C@H]1O[C@H](CO)[C@@H](O)[C@H](O)[C@@]1(O)C#Cc1ccccc1 (some centres unmarked)" assay_metric="log10 of EC90" recorded_number=2.41
compound=Cn1cc(C#C[C@@]2(O)[C@@H](C#Cc3cnn(-c4ccccc4)c3)O[C@H](CO)[C@@H](O)[C@@H]2O)cn1 assay_metric="log10 of EC90" recorded_number=-0.60
compound=N#Cc1ccccc1-n1cc(C#C[C@H]2O[C@H](CO)[C@@H](O)[C@H](O)[C@@]2(O)C#Cc2ccccc2)cn1 assay_metric="log10 of EC90" recorded_number=1.81

--- query ---
Prompt line: Need log10 of EC90, item "Cc1nn(C)cc1C#C[C@H]1O[C@H](CO)[C@@H](O)[C@H](O)[C@@]1(O)C#Cc1ccccc1"
Response line: 2.41

###

target: FimH proteins (Escherichia coli); construct: endogenous in cells; host or cells: UPEC strain UTI89 (whole bacteria); test: hemagglutination inhibition (HAI) assay: UPEC UTI89 with guinea pig red blood cells; assay type: cell-based, uropathogenic Escherichia coli (UPEC) UTI89; conditions: read-out: HAI EC90 (minimum concentration for inhibiting hemagglutination)
Quick reference: EC90 of the listed items.
# unit: nM | format: bare number

Solved cases (2 shown):
compound="CCC(C)n1cc(C#C[C@H]2O[C@H](CO)[C@@H](O)[C@H](O)[C@@]2(O)C#Cc2ccccc2)cn1 (stereo partly drawn)" assay_metric=EC90 readout_unit=nM recorded_number=8
compound=CC#C[C@H]1O[C@H](CO)[C@@H](O)[C@H](O)[C@@]1(O)C#Cc1ccccc1 assay_metric=EC90 readout_unit=nM recorded_number=520

Prompt line: Need EC90, item "OC[C@H]1O[C@H](C#Cc2cnn([C@H]3C[C@H]4C[C@H]4C3)c2)[C@](O)(C#Cc2ccccc2)[C@@H](O)[C@@H]1O"
Response line: 0.5

Prompt line: Record: "Cn1cc(C#C[C@@]2(O)[C@@H](C#Cc3cnn(C4CCC(F)(F)CC4)c3)O[C@H](CO)[C@@H](O)[C@@H]2O)cn1"
Response line: 2

Prompt line: Record: OC[C@H]1O[C@H](C#Cc2cnn(C3CCCCC3O)c2)[C@](O)(C#Cc2ccccc2)[C@@H](O)[C@@H]1O (stereo partly drawn)
Response line: 16

###

target: FimH proteins (Escherichia coli); construct: endogenous in cells; host or cells: UPEC strain UTI89 (whole bacteria); assay: hemagglutination inhibition (HAI) assay: UPEC UTI89 with guinea pig red blood cells; format: cell-based, uropathogenic Escherichia coli (UPEC) UTI89; settings: read-out: HAI EC90 (minimum concentration for inhibiting hemagglutination)
assay_metric: EC90 (nM)
# unit: nM | format: bare number

Solved cases (4 shown):
smiles_entry=OC[C@H]1O[C@H](C#CC2CC2)[C@](O)(C#Cc2ccccc2)[C@@H](O)[C@@H]1O assay_metric=EC90 recorded_number=130
smiles_entry=O=S(=O)(O)c1cccc(C#C[C@@]2(O)[C@@H](C#Cc3cnn(-c4ccc(OC[C@H](O)CO)cc4)c3)O[C@H](CO)[C@@H](O)[C@@H]2O)c1 assay_metric=EC90 recorded_number=16
smiles_entry=OC[C@H]1O[C@H](C#Cc2ccc3ccccc3c2)[C@](O)(C#Cc2ccccc2)[C@@H](O)[C@@H]1O assay_metric=EC90 recorded_number=1040
smiles_entry=Cn1cc(C#C[C@@]2(O)[C@@H](C#Cc3cnn(-c4cnn(C)c4)c3)O[C@H](CO)[C@@H](O)[C@@H]2O)cn1 assay_metric=EC90 recorded_number=16

Prompt line: Need EC90, item "OC[C@H]1O[C@H](C#Cc2cnn(-c3ncccc3Cl)c2)[C@](O)(C#Cc2ccccc2)[C@@H](O)[C@@H]1O"
Response line: 4

###

target: FimH proteins (Escherichia coli, UniProt Q1R2J4); construct: endogenous in cells; host or cells: UPEC strain UTI89 (whole bacteria); assay: hemagglutination inhibition (HAI) assay: UPEC UTI89 with guinea pig red blood cells; assay type: cell-based, uropathogenic Escherichia coli (UPEC) UTI89; conditions: read-out: HAI EC90 (minimum concentration for inhibiting hemagglutination)
Quick reference: EC90 of the listed items.

molecule=COCCOc1ccc(-n2cc(C#C[C@H]3O[C@H](CO)[C@@H](O)[C@H](O)[C@@]3(O)C#Cc3ccccc3)cn2)cc1 system_tested="FimH proteins (Escherichia coli, UniProt Q1R2J4)" assay_metric=EC90 result="< 0.1 nM"
molecule=CO[C@H]1CC[C@H](n2cc(C#C[C@H]3O[C@H](CO)[C@@H](O)[C@H](O)[C@@]3(O)C#Cc3ccccc3)cn2)CC1 system_tested="FimH proteins (Escherichia coli, UniProt Q1R2J4)" assay_metric=EC90 result="2 nM"
molecule=OC[C@H]1O[C@H](C#Cc2ccccc2)[C@](O)(C#Cc2cccc3ccccc23)[C@@H](O)[C@@H]1O system_tested="FimH proteins (Escherichia coli, UniProt Q1R2J4)" assay_metric=EC90 result="260 nM"
molecule=Cc1c(C#C[C@H]2O[C@H](CO)[C@@H](O)[C@H](O)[C@@]2(O)C#Cc2ccccc2)cnn1C system_tested="FimH proteins (Escherichia coli, UniProt Q1R2J4)" assay_metric=EC90 result="260 nM"
molecule=CCn1cc(C#C[C@@]2(O)[C@@H](C#Cc3cnn(-c4ccc(Cl)cc4)c3)O[C@H](CO)[C@@H](O)[C@@H]2O)cn1 system_tested="FimH proteins (Escherichia coli, UniProt Q1R2J4)" assay_metric=EC90 result="< 0.1 nM"
molecule=OC[C@H]1O[C@H](C#Cc2cnn([C@@H]3C[C@H]4C[C@H]4C3)c2)[C@](O)(C#Cc2ccccc2)[C@@H](O)[C@@H]1O system_tested="FimH proteins (Escherichia coli, UniProt Q1R2J4)" assay_metric=EC90 result="8 nM"
molecule=OC[C@H]1O[C@H](C#Cc2cnn([C@H]3CCOC3)c2)[C@](O)(C#Cc2ccccc2)[C@@H](O)[C@@H]1O system_tested="FimH proteins (Escherichia coli, UniProt Q1R2J4)" assay_metric=EC90 result="16 nM"
molecule=OC[C@H]1O[C@H](C#Cc2cnn(-c3ccc(O[C@H]4CCOC4)cc3)c2)[C@](O)(C#Cc2ccccc2)[C@@H](O)[C@@H]1O system_tested="FimH proteins (Escherichia coli, UniProt Q1R2J4)" assay_metric=EC90 result="< 0.1 nM"
molecule=C#C[C@H]1O[C@H](CO)[C@@H](O)[C@H](O)[C@@]1(O)C#Cc1ccccc1 system_tested="FimH proteins (Escherichia coli, UniProt Q1R2J4)" assay_metric=EC90 result="4160 nM"
molecule=Cn1cc(C#C[C@@]2(O)[C@@H](C#Cc3cnn(-c4ccc(Cl)cc4)c3)O[C@H](CO)[C@@H](O)[C@@H]2O)cn1 system_tested="FimH proteins (Escherichia coli, UniProt Q1R2J4)" assay_metric=EC90 result="0.13 nM"

--- query ---
Prompt line: Need EC90, item "OC[C@H]1O[C@H](C#Cc2cnn(C3CCCC3)c2)[C@](O)(C#Cc2ccccc2)[C@@H](O)[C@@H]1O"
Response line: 1 nM
